Assay: antimalarial activity against Dd2 strain (AID 2302)
Settings: P. falciparum Dd2 in RBCs, LDH growth readout, 72 h; at 2 µM
Calls of active or inactive are those of the source.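 The calls were made as follows: active = growth inhibition above 50% at the single 2 µM test dose, taken to imply half-maximal potency below 2 µM; inactive = the rest.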
Lab note: assign the record to one of active, inactive

compound: N#Cc1ccc(N2CCN(Cc3ccc(-c4ccc(-c5nc6ccc(C(F)(F)F)cc6[nH]5)s4)cc3)CC2)nc1
class.label: active
--
compound: COc1cccc(NC(=O)c2ccc(NCCCN3CCC(C)CC3)c([N+](=O)[O-])c2)c1
class.label: inactive
--
compound: N#Cc1ccc2c(c1)CCN(CCC1CCC(NC(=O)c3cc4cccc([N+](=O)[O-])c4[nH]3)CC1)C2 (configuration not stated)
class.label: inactive
--
compound: Cc1ccc(NC(=O)N2CCCN(CCCCCNC(=O)/C=C/c3ccc(Cl)c(Cl)c3)CC2)cc1
class.label: inactive
--
compound: COc1cc2nc(N(C)Cc3cccc(I)c3)nc(N)c2cc1OC
class.label: active

Asked: Hey, what did the test say about CCN1CCN(Cc2ccc(NC(=O)c3cc4ccc5cccnc5c4[nH]3)cc2)CC1 ?
Given back: active

Asked: // outcome(item) with item = COc1ccc2nccc(NC(=O)N3CCC(NCc4cc5c(F)ccc(F)c5[nH]4)CC3)c2n1
Given back: inactive

Asked: Entry Cn1ccc2c3c(N)nc(N)nc3ccc21 : call = ?
Given back: inactive

Asked: Test call for this compound, please: O=C(Nc1cccc(CN2CCN(Cc3cccc(O)c3)CC2)c1)c1cc2ccccc2s1
Given back: active

Asked: Which result was noted for this compound in the test: COc1ccc2ncc(F)c(CCN3CC[C@@H](CNCc4cc(C)c5c(c4)OCCO5)C3)c2n1
Given back: inactive

Asked: For Cc1cccc2[nH]c(-c3cccc(-c4ccc(NC(=O)NCc5ccccc5)cc4)c3)nc12 , what call appears in the results of this test?
Given back: inactive

Asked: Check the results log: what was the call for CC(C(=O)Nc1ccc(Br)cc1Br)N1CCN(C(=O)c2ccco2)CC1 (configuration not stated) ?
Given back: active

Asked: Recorded test outcome, item COc1ccc(NC(=O)/C=C/c2ccc(Cl)c(Cl)c2)cc1N1CCN(C)CC1
Given back: inactive

Data origin, for the record: PubChem BioAssay
